Values from patent US4382958A

system: Female CFLP mice; assay: Hypoglycaemic activity: blood glucose of fasted mice after subcutaneous glucose; type: in vivo; conditions: Mus musculus; 1.0 μ mol/kg oral; 2 hour period after glucose; vs control mice given water; read-out: REDUCTION IN AREA UNDER BLOOD GLUCOSE CURVE (%)
As shown below, each of these molecules has a reported inhibition in vivo at 1 µmol/kg value.

molecule	inhibition in vivo at 1 µmol/kg
Cc1cc(CC(C)NCC(O)c2cccc(C(F)(F)F)c2)ccc1OCCO (stereo not shown)	31%
C[C@H](Cc1ccc(OCCCCO)cc1)NC[C@H](O)c1cccc(C(F)(F)F)c1	37%
CC(Cc1ccc(OCCCO)cc1)NCC(O)c1cccc(C(F)(F)F)c1 (stereo not shown)	31%
CC(Cc1ccc(OCCCCCCO)cc1)NCC(O)c1cccc(C(F)(F)F)c1 (stereo not shown)	59%
